B1: CPEB3 Ribozyme (parent)
chain: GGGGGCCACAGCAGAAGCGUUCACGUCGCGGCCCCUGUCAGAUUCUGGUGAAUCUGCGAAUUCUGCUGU

Variants of: B1
Experiment: self-cleavage, relative activity (ratio to wild type); higher = more cleavage; co-transcriptional
Value Type: self-cleavage
Just the number, please, no unit after it.

// solved cases for self-cleavage follow
Chain: GGGGGACACAGCAGAAGCGUUCACGUCGCGGCCCCUGUCAGAUUCUGGUGAAUCUGCGAAUUCUACUGU [C6A G65A]
self-cleavage: 0.451
--
Chain: GGGGGCCACAGCGGAAGCGUUCACGUCCCGGCCCCUGUCAGAUUCUGGUGAAUCUGCGAAUUCUGCUGU [A13G G28C]
self-cleavage: 0.18

Ask: # self-cleavage lookup, item GGGGGCCACAGCAGAAGCGUUGACGUCGCGGCCCCUGUCAGACUCUGGUGAAUCUGCGAAUUCUGCUGU [C22G U43C]
Reply: 0.174

Ask: And for GGGGGCCACAGCAGAUGCGUUCACGUCGCGGCCCCUGUCAGAUUCUGGUGAAUCGGCGAAUUCUGCUGU [A16U U55G] ?
Reply: 0.335

Ask: And for GGGCGCCACAGCAGAAGCGUUCACGUCGCGGCCCCUGUCAGAUUCUGGUGUAUCUGCGAAUUCUGCUGU [G4C A51U] ?
Reply: 0.493
